System under test: human (Homo sapiens) erythrocyte AChE (HsAChE) (Homo sapiens, UniProt P22303)
Construct: human (Homo sapiens) erythrocyte AChE (HsAChE); purchased Sigma-Aldrich; host or cells: human erythrocytes
Sequence (P22303 32-617 isoform P22303-2 limits assumed): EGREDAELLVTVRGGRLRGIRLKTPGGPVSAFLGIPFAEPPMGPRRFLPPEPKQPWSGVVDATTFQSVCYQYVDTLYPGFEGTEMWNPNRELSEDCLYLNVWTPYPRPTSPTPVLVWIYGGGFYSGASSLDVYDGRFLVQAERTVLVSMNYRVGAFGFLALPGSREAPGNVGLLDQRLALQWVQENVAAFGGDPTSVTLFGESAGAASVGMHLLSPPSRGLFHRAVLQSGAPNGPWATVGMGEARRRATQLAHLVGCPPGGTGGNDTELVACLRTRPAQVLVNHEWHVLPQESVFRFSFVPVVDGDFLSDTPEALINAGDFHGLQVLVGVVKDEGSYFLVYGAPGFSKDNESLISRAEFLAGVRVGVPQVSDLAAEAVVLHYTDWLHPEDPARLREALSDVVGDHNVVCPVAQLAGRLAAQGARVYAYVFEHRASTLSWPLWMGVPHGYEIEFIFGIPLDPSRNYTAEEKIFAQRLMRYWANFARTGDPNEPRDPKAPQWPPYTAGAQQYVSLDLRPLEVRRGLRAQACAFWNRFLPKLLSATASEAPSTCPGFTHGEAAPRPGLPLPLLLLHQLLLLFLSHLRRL
Experimental details: Inhibition of HsAChE (spectrophotometric, ATCh iodide substrate)
Format: biochemical
Measurement setup: compound 20 μM; n.a. = not active; mean ± SEM, n = 3
Please respond with reported Inhibition of HsAChE, % inhibition at 20 μM for every item in the list.
Please give a number only; it is taken to be in %.

## Input // map [Fe+2].c1cc[cH-]c1.c1ccc2c(-[c-]3cccc3)c3ccccc3nc2c1 [1c] to recorded Inhibition of HsAChE, % inhibition at 20 μM (system: human (Homo sapiens) erythrocyte AChE (HsAChE) (Homo sapiens, UniProt P22303))
## Output 6.5

## Input human (Homo sapiens) erythrocyte AChE (HsAChE) (Homo sapiens, UniProt P22303) / Inhibition of HsAChE, % inhibition at 20 μM / C=C(C)[c-]1cccc1.[Fe+2].c1ccc2c(-[c-]3cccc3)c3ccccc3nc2c1 [5c] : value?
## Output 36.7

## Input // fetch human (Homo sapiens) erythrocyte AChE (HsAChE) (Homo sapiens, UniProt P22303) Inhibition of HsAChE, % inhibition at 20 μM for C=C(C)[c-]1cccc1.[Fe+2].c1ccc(-[c-]2cccc2)nc1 [5a]
## Output 4.4

## Input Give recorded Inhibition of HsAChE, % inhibition at 20 μM with human (Homo sapiens) erythrocyte AChE (HsAChE) (Homo sapiens, UniProt P22303) for the following compound: C=C[c-]1cccc1.[Fe+2].c1ccc2c(-[c-]3cccc3)c3ccccc3nc2c1 [7c, 1-(Acridin-9-yl)-1′-Vinylferrocene]
## Output 22.8

## Input Short answer please: Inhibition of HsAChE, % inhibition at 20 μM, human (Homo sapiens) erythrocyte AChE (HsAChE) (Homo sapiens, UniProt P22303), entry [Fe+2].c1cc[cH-]c1.c1cc[cH-]c1 [Fc, ferrocene]
## Output 9.6

## Input Give recorded Inhibition of HsAChE, % inhibition at 20 μM with human (Homo sapiens) erythrocyte AChE (HsAChE) (Homo sapiens, UniProt P22303) for the following compound: C=C[c-]1cccc1.[Fe+2].c1cc[cH-]c1 [compound 9, vinylferrocene, reference compound]
## Output 4.2
